Test system: CAL-51
ASSAY NOTES: normalised viability (% of control), CellTiter-Blue; higher = more viable cells (about 100 = DMSO control)
TEST CONDITIONS: 10000 nM; incubation time: 72 h
OBSERVATION TYPE: normalised viability

[[record]]
smiles_text = "O=C(O)C(=O)O.[NH-][C@@H]1CCCC[C@H]1[NH-].[Pt+2]"
value = "39%"

[[record]]
smiles_text = "Nc1ccccc1NC(=O)c1ccc(CNC(=O)OCc2cccnc2)cc1"
value = "29.6%"

[[record]]
smiles_text = "NCCCNCCSP(=O)(O)O"
value = "108%"

[[record]]
smiles_text = "N#Cc1ccc(C(c2ccc(C#N)cc2)n2cncn2)cc1"
value = "96.3%"

[[record]]
smiles_text = "C1CN1c1nc(N2CC2)nc(N2CC2)n1"
value = "60.5%"


----------
In this section, each of the compounds is paired with its reported normalised viability.
System: CAL-148
ASSAY NOTES: normalised viability (% of control), CellTiter-Blue; higher = more viable cells (about 100 = DMSO control)
TEST CONDITIONS: 3 nM; incubation time: 72 h
OBSERVATION TYPE: normalised viability (%)

[[record]]
smiles_text = "CCc1cncnc1N1CCN(Cc2nc3ccc(C(F)(F)F)cc3[nH]2)CC1"
scale_unit = "%"
value = 119

[[record]]
smiles_text = "Nc1nc2[nH]cc(CCc3ccc(C(=O)N[C@@H](CCC(=O)O)C(=O)O)cc3)c2c(=O)[nH]1"
scale_unit = "%"
value = 95

[[record]]
smiles_text = "O=C(Cc1ccc(-c2ccc(OCCN3CCOCC3)cc2)cn1)NCc1ccccc1"
scale_unit = "%"
value = 94.8

[[record]]
smiles_text = "CC[C@H](Nc1ncnc2[nH]cnc12)c1nc2cccc(F)c2c(=O)n1-c1ccccc1"
scale_unit = "%"
value = 91.9

[[record]]
smiles_text = "Nc1nc(F)nc2c1ncn2[C@@H]1O[C@H](CO)[C@@H](O)[C@@H]1O"
scale_unit = "%"
value = 71


----------
Tested on: CAL-120
TEST CONDITIONS: 72 h
OBSERVATION TYPE: EC50, CellTiter-Glo (µM)

[[record]]
smiles_text = "CC[C@H](Nc1ncnc2[nH]cnc12)c1nc2cccc(F)c2c(=O)n1-c1ccccc1"
experimental_target = "CAL-120"
result_modifier = "="
value = 8.05

[[record]]
smiles_text = "Nc1nc(F)nc2c1ncn2[C@@H]1O[C@H](CO)[C@@H](O)[C@@H]1O"
experimental_target = "CAL-120"
result_modifier = ">"
value = 10

[[record]]
smiles_text = "O=C(Cc1ccc(-c2ccc(OCCN3CCOCC3)cc2)cn1)NCc1ccccc1"
experimental_target = "CAL-120"
result_modifier = "="
value = 0.0571

[[record]]
smiles_text = "COc1cc2c(NC3CCN(C(C)C)CC3)nc(C3CCCCC3)nc2cc1OCCCN1CCCC1"
experimental_target = "CAL-120"
result_modifier = "="
value = 2.72


----------
Tested on: MDA-MB-436
ASSAY NOTES: normalised response (% of control), CellTiter-Glo; higher = more viable cells (100 = DMSO, 0 = benzethonium chloride kill control)
TEST CONDITIONS: incubation time: 72 h
OBSERVATION TYPE: normalised response (%)

[[record]]
compound = "C[C@H]1C[C@@H]2[C@H]([C@@H](O)C[C@@]3(C)[C@H]2CC[C@]3(O)C(=O)CO)[C@@]2(C)C=CC(=O)C=C12 [Methylprednisolone] (10000 nM)"
experimental_target = "MDA-MB-436"
observation_type = "normalised response"
scale_unit = "%"
value = 102

[[record]]
compound = "CNC(=O)c1cc(Oc2ccc(NC(=O)Nc3cc(C(C)(C)C)nn3-c3ccc4ncccc4c3)c(F)c2)ccn1 [Rebastinib] (1000 nM)"
experimental_target = "MDA-MB-436"
observation_type = "normalised response"
scale_unit = "%"
value = 112

[[record]]
compound = "O=C(O)C1(C(=O)O)CCC1.[NH2-].[NH2-].[Pt+2] [Carboplatin] (10000 nM)"
experimental_target = "MDA-MB-436"
observation_type = "normalised response"
scale_unit = "%"
value = 92.5

